- System: MDA-MB-468
- experimentalProtocol: phospho-S6 immunofluorescence (DAPI-normalised), per-plate z-score; higher = higher phospho-S6 signal (less pathway suppression)
- assaySetup: co-treatment: vehicle; 24 h
valueKind: phospho-S6 immunofluorescence (z-score)

// worked examples, phospho-S6 immunofluorescence (z-score) included
CN1CCc2c(c3ccccc3n2Cc2ccccc2)C1 [Mebhydrolin (napadisylate)] (compound 10 µM) : 0.64
CCCCc1ccc(NS(=O)(=O)c2ccc(F)cc2)cc1 (compound 10 µM) : -10.2

Turning now to a further compound:
Query (compound): C[C@]12C=CC(=O)C=C1CC[C@@H]1[C@@H]2C(=O)C[C@@]2(C)[C@H]1CC[C@]2(O)C(=O)CO [Prednisone] (compound 10 µM) ; field requested: phospho-S6 immunofluorescence (z-score) 0.94

----------
- Tested on: MDA-MB-468
- experimentalProtocol: phospho-S6 immunofluorescence (DAPI-normalised), per-plate z-score; higher = higher phospho-S6 signal (less pathway suppression)
- assaySetup: co-treatment: lapatinib 1 uM; 24 h
Where a name gives a salt, the structure may show the parent alone.
Each record here notes measured phospho-S6 immunofluorescence (z-score).
Give only the figure.

Example cases with answers are listed next.
CC[C@H](NC(=O)c1c(C)c(-c2ccccc2)nc2ccccc12)c1ccccc1 (compound 10 µM) : -3.25
CCCc1nc(C(C)(C)O)c(C(=O)O)n1Cc1ccc(-c2ccccc2-c2nnn[nH]2)cc1 [Olmesartan] (compound 10 µM) : 0.28
C[C@H](NC(=O)C(C)(C)Oc1ccc(C(F)(F)F)cn1)[C@@H](Cc1ccc(Cl)cc1)c1cccc(C#N)c1 [Taranabant] (compound 10 µM) : -2.35
CN1CCN(C2=Nc3ccccc3Oc3ccc(Cl)cc32)CC1 [Loxapine (succinate)] (compound 10 µM) : 1.22
O=C1CC2(CCCC2)CC(=O)N1CCCCN1CCN(c2ncccn2)CC1 [Buspirone (hydrochloride)] (compound 10 µM) : 0.17

Form entry - test system: MDA-MB-468; read-out: phospho-S6 immunofluorescence (z-score); compound: CCCN[C@H]1CCc2nc(N)sc2C1 [Pramipexole (dihydrochloride)] (compound 10 µM) 0.31

Here is the next compound: CN1CCCC(n2nc(Cc3ccc(Cl)cc3)c3ccccc3c2=O)CC1 (stereo unspecified) [Azelastine (hydrochloride)] (compound 10 µM) -0.25

Continue with c1ccc(CC2=NCCN2)cc1 [Tolazoline (hydrochloride)] (compound 10 µM) 0.41

----------
- Tested on: MDA-MB-468
- experimentalProtocol: phospho-S6 immunofluorescence (DAPI-normalised), per-plate z-score; higher = higher phospho-S6 signal (less pathway suppression)
- assaySetup: co-treatment: lapatinib 1 uM; 24 h
Counter-ions that a name gives are not always drawn.
Parameter phospho-S6 immunofluorescence (z-score): see the listing below.
No unit in the answer, please; the number alone is enough.

Cc1ccc(C)c(OCCn2cc(C(=O)O)c3ccccc32)c1 (compound 10 µM) : -0.34
CN1[C@@H]2CC[C@H]1C[C@@H](OC(=O)c1c[nH]c3ccccc13)C2 [Tropisetron (Hydrochloride)] (compound 10 µM) : -0.2
CN(C)CC/C=C1/c2ccccc2COc2ccc(CC(=O)O)cc21 [Olopatadine (hydrochloride)] (compound 10 µM) : 0.08
C/C(=N\NC(=O)C(NC(=O)c1ccccc1)c1n[nH]c(=O)c2ccccc12)c1cccc(Br)c1 (stereo not given) (compound 10 µM) : 0.13

Entry C[C@@H](NCCCc1cccc(C(F)(F)F)c1)c1cccc2ccccc12 [Cinacalcet (hydrochloride)] (compound 10 µM) has what phospho-S6 immunofluorescence (z-score)? -11.2
